Source: patent US5432175A

# Tested on: PAF-induced bronchospasm
# Assay text: PAF-induced bronchospasm in guinea pigs (in vivo)
# Design: species or system guinea pig (male Hartley)
# Condition description: Cavia porcellus; oral, dose 3 mg/kg; PAF 0.4 μg/kg i.v.; read-out: Agonist Bronchospasm (in vivo) PAF % Inhibition
# Protocol: B. In Vivo Studies: Agonist-Induced Responses Spasmogen-Induced Bronchospasm in Guinea Pigs Male Hartley guinea pigs (450-550 g) were obtained from Charles River Breeding Laboratories. […] Bronchoconstriction was measured as the percent increase in inflation pressure that peaked within 5 min. after challenge with spasmogen. […] The effect of a compound on the bronchospasm is expressed as a percent inhibition of the increase in inflation pressure compared to the increase in a control group. […]
Parameter measured: inhibition in vivo at 3 mg/kg (%)

- CC(=O)N1CCC(=C2c3ccc(Cl)cc3CCc3cccnc32)CC1 [reference compound]: 4
- O=C(c1cc[n+]([O-])cc1)N1CCN(C(c2ccc(Cl)cc2)c2nccs2)CC1 (stereo not shown): 73
- O=C(c1cc[n+]([O-])cc1)N1CCN(C(c2ccc(Cl)cc2)c2cccs2)CC1 (stereo not shown): 22
- [O-][n+]1ccc(CN2CCC(=C(c3ccc(Cl)cc3)c3ccccn3)CC2)cc1: 18
- O=C(c1cc[n+]([O-])cc1)N1CCC(=C(c2ccc(Cl)cc2)c2ccccn2)CC1: 100
- O=C(c1cc[n+]([O-])cc1)N1CCC(=C(c2ccccc2)c2ccccc2)CC1: 44
- O=C(c1cc[n+]([O-])cc1)N1CCN(C(c2ccccc2)c2ccc(Cl)cc2)CC1 (stereo not shown): 99
